Assay: A549 cell viability effects, profiling panel, calcein-AM fluorescence, 48 h, basal (AID 1162); note: test concentration not given here
Conditions: higher = more signal
Measured property: z-score
// response body must contain only the number

As a guide, the following entries are already answered.
{"columns": ["Compound", "z-score"],
 "data": [
  ["C=CCOC(=O)[C@H]1[C@@H]2C(=O)O[C@@H](c3ccccc3)[C@@H](c3ccccc3)N2[C@@H](c2ccc(OCCOC(=O)[C@H]3C[C@H]4C(=O)N[C@@H](CCCC[N+](C)(C)C)C(=O)N4[C@H]3c3ccc(O)cc3)cc2)[C@]12C(=O)Nc1ccc(I)cc12", 0.191],
  ["CCOC(=O)C[C@H]1[C@H](OC(=O)c2ccc(C(=O)c3ccccc3)cc2)[C@@H](NC(=O)c2ccc3ccccc3n2)c2cc(OCCCO)ccc2N1C(=O)c1ccccc1", -0.851],
  ["CCCCCCc1nc(-c2ccc(OC)nc2)cc2c1[Si](C(C)C)(C(C)C)O[C@H]2c1ccccc1", -0.33],
  ["COC(=O)[C@@]1(Cc2ccc(F)cc2)[C@H]2c3cc(C(=O)N4CCCC4)n(CCCNc4ncc(C(F)(F)F)cc4Cl)c3C[C@H]2CN1C(=O)c1ccccc1", -0.386],
  ["COCCCNC(=O)[C@]1(CCC(=O)OC(C)(C)C)N=C(c2ccc(OCCCO)cc2)O[C@@H]1c1ccccc1CN=[N+]=[N-]", -0.651]
]}

Form: compound = `C=CCOC(=O)[C@H]1[C@@H]2C(=O)O[C@@H](c3ccccc3)[C@@H](c3ccccc3)N2[C@@H](c2ccc(OCCOC(=O)[C@H]3C[C@H]4C(=O)N[C@@H](CCCCNC(C)=O)C(=O)N4[C@H]3c3cccc(OCCO)c3)cc2)[C@]12C(=O)Nc1ccccc12` ; z-score = -0.112

Form: compound = `CC(C)C(=C=CC[C@@H](O)c1ccc(OCCO)cc1)C[C@@H](O)c1ccccn1` ; z-score = -0.343

Form: compound = Cc1ccccc1C(O)C1C=CC2C(=O)N(c3ccccc3)C(=O)C2N1Nc1ccc(C(C)C)cc1 (stereo unspecified) ; z-score = -0.0475

Form: compound = COc1cc2c(cc1O)C(C1CC1)N(Cc1sc3ccccc3c1Cl)CC2 (stereo unspecified) ; z-score = -4

Form: compound = O=C1C2C=CC(C(O)CCc3ccccc3)N(Nc3ccccc3F)C2C(=O)N1c1ccccc1 (stereo unspecified) ; z-score = -0.804
